Listed next: entries and their corresponding EC50.
- test.system: Retinoic acid receptor RXR-alpha (Homo sapiens)
- Sequence (P19793 whole entry): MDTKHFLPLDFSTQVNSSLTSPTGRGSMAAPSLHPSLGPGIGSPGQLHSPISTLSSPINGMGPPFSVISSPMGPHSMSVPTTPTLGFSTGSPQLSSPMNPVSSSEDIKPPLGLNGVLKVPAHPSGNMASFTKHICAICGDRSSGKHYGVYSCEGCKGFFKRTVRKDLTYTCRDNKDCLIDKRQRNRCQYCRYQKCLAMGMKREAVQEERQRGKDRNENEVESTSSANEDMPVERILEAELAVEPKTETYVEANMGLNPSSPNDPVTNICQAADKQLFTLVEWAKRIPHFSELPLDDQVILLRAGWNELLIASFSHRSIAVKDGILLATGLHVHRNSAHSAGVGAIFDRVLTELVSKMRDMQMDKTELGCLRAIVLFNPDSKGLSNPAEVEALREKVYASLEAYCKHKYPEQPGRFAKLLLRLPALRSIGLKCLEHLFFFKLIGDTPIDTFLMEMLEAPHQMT
- run.description: Agonist activity at RXRalpha by luciferase reporter gene assay
measure: EC50

smiles.repr: CCN(c1ccc2c(c1)C(C)(C)CCC2(C)C)c1ccc(C(=O)O)cn1
reported: 5.28 nM

smiles.repr: CCN(c1ccc2c(c1)C(C)(C)CCC2(C)C)c1ccc(-c2nnn[nH]2)cn1
reported: 205 nM

All figures here come from ChEMBL document CHEMBL1221250.
